The origin of these recorded values is ChEMBL document CHEMBL2440093.

Biological target: Epidermal growth factor receptor (Homo sapiens, UniProt P00533)
Sequence (P00533 whole entry): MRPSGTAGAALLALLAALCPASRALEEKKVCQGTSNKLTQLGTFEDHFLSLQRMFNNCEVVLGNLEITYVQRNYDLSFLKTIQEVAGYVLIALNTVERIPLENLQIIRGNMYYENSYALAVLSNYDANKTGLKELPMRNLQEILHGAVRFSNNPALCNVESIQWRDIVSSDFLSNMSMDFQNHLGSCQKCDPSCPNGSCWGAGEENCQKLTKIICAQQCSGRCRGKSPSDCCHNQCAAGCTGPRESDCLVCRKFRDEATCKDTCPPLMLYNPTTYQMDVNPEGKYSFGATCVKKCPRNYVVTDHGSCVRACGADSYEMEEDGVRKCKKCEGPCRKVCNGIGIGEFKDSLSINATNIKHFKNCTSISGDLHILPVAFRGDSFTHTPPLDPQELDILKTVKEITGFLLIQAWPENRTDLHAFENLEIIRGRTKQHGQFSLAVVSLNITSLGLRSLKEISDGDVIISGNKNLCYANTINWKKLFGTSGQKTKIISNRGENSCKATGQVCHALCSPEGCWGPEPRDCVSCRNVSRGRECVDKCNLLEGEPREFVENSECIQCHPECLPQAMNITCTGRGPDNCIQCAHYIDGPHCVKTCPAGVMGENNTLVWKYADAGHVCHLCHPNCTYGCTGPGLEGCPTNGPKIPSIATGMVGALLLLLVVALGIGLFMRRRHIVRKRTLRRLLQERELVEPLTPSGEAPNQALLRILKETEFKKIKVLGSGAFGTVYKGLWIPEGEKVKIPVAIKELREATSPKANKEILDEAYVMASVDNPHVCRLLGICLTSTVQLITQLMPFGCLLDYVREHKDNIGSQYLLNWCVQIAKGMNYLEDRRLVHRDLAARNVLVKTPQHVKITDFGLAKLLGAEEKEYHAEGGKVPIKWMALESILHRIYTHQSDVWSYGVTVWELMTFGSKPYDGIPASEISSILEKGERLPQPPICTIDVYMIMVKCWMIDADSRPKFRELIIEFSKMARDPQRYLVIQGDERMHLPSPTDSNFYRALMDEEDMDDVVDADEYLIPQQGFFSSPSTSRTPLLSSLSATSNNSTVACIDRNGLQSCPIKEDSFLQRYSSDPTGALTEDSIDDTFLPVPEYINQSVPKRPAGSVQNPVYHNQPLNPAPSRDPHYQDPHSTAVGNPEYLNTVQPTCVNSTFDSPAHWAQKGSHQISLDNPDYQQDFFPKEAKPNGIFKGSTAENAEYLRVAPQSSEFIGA
Assay: Inhibition of EGFR in shed membrane vesicles of human A431 cells using poly-Glu-Tyr as substrate after 30 mins by ELISA
Assay type: cell membranes, A-431
pIC50: −log10 of the molar value.
ASSAY_READOUT: pIC50

| RECORD_SMILES | STUDY_SYSTEM | READOUT_VALUE |
| --- | --- | --- |
| COc1cc(O)c2c(c1)CCN(c1cccc(C(=O)N3CCCCC3)c1)C2=O | Epidermal growth factor receptor (Homo sapiens, UniProt P00533) | 5.93 |
| COc1cc2c(c(OC)c1)C(=O)N(c1cccc(C(=O)N3CCCCC3)c1)CC2 | Epidermal growth factor receptor (Homo sapiens, UniProt P00533) | 5.91 |
| COc1cc(OC)c2c(=O)n(-c3ccc(F)c(Cl)c3)ccc2c1 | Epidermal growth factor receptor (Homo sapiens, UniProt P00533) | 5.26 |
| COc1cc(O)c2c(=O)n(-c3cccc(C(=O)N4CCCCC4)c3)ccc2c1 | Epidermal growth factor receptor (Homo sapiens, UniProt P00533) | 5.86 |

I: C#Cc1cccc(-n2ccc3cc(OC)cc(OC)c3c2=O)c1
II: COc1cc(OC)c2c(=O)n(-c3cccc(C(=O)N4CCCCC4)c3)ccc2c1
Field: entry with larger pIC50 (options I / II ). Answer by stating the label of the chosen item.
II
